Quick list: binding signal per entry.
tested_system: T1, UNK ZnF1-3 (human, UniProt Q9C0B0 31-174)
T1 sequence: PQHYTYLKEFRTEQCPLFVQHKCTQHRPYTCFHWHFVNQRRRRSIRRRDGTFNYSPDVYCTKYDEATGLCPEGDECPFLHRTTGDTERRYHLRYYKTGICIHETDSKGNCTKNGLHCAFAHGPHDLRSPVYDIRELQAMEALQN
assay: nsRBNS (natural sequence RNA bind-n-seq); RBNS binding buffer (assumed for nsRBNS): 25 mM Tris pH 7.5, 150 mM KCl, 3 mM MgCl2, 0.01% Triton X-100, 500 ug/ml BSA, 20 U/ml SUPERase-In, 4 C; UNK is unkempt and MSI1 is Musashi-1; names of the RNAs are library labels; protein concentration not given here; high values mean tight binding
Whole data set: some 24,000 sequences, median “enrichment r” near 0.99, cut for the highest 2% near 3.7. This excerpt belongs to a sample that is enriched for the highest values.
metric: binding signal

binder	result
chr3:33038425:33038426:-_ENSG00000170266_ENST00000307363|hu_mus|FALSE|FALSE (ssRNA) RNA: GGGAGUUCUACAGUCCGACGAUCGGUGGGAGGUCAGGCAAGGCGGGGCUGCAAAGUCACCAGCAGGGUACACACAUUCCAGAAAUGUAGCUUCCAUUCUAGCACAACAAAGGUGAUCCGUGUAACCAGAGUAGAGCUGUGCUCCAACAGAGGAUUGAGCAUCA	1.42 enrichment R
chr4:86222814:86222815:+_ENSMUSG00000070934_ENSMUST00000091064|mus_mus|FALSE|FALSE (ssRNA) RNA: GGGAGUUCUACAGUCCGACGAUCGAAUAUUAAAGACAAAUGAUGCAAAAAAAAAAAAAACACCGUAAUUCAGCAUUUUACUAAAGAGCAUUUGGCAUUAUUUCAACGCAUGAGGAGGCUGUGCUUGGGCCCAUCUACUCUUUCCAACAGAGGAUUGAGCAUCA	1.67 enrichment R
